# system.name: aureolysin (ALN) (Staphylococcus aureus, UniProt P81177)
# Construct: purchased BioCentrum Ltd (Kraków, Poland)
# Sequence (P81177 209-509): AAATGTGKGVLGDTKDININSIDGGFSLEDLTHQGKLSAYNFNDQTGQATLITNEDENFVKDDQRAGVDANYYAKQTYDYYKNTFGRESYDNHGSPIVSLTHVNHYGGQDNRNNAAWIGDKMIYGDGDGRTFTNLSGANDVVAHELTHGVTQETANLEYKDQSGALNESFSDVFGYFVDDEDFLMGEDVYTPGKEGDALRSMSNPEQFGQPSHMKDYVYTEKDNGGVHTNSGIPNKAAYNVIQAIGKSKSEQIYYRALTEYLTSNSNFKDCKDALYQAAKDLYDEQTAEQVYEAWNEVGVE
# assay.protocol: Enzyme inhibition kinetics, fluorogenic substrate ES005
# Assay type: biochemical
# condition.details: Aureolysin (ALN); inhibitor 100 μM; average over 0, 15, 30 min preincubation
property.name: vi/v0 Av (bar diagram figure 7)
Please reply with the number alone, leaving off any unit.

The cases that follow already have their vi/v0 Av (bar diagram figure 7) on record.
{"columns": ["compound", "measured"],
 "data": [
  ["NC(=O)C(Cc1c[nH]c2ccccc12)NC(=O)C(CCCc1ccccc1)CP(=O)(O)C(Cc1ccccc1)NC(=O)OCc1ccccc1 (stereo not shown)", 0.4117],
  ["CCOC(=O)C(CO)CP(=O)(O)C(Cc1ccccc1)NC(=O)OCc1ccccc1 (stereo not shown)", 0.8959],
  ["NC(=O)C(CCC(=O)O)NC(=O)C(CCC(=O)O)NC(=O)C(Cc1cc(-c2ccc(-c3cccc(Cl)c3)cc2)no1)CP(=O)(O)c1ccc(Br)cc1 (stereo not shown)", 0.886]
]}

Now look at this entry.
**Q:** Value lookup for vi/v0 Av (bar diagram figure 7); key = CC(NC(=O)OCc1ccccc1)P(=O)(O)CC(Cc1ccccc1)C(=O)O (stereo not shown)
**A:** 0.8998

* * *

# system.name: aureolysin (ALN) (Staphylococcus aureus)
# Construct: purchased BioCentrum Ltd (Kraków, Poland)
# assay.protocol: Enzyme inhibition kinetics, fluorogenic substrate ES005
# Assay type: biochemical
# Protocol: Determination of reaction velocities. The substrate ES001 was used for APMA activated MMP-9 (MMP-9(A)), Mag-Trypsin activated MMP-9 (MMP-9(MT)) and MMP-14, while the substrate ES005 was used for ALN, PLN and TLN. […] The phosphinic compounds were dissolved in 100% DMSO to a final concentration of 10 mM. […] Reactions were monitored for 30 minutes at 37°C. Determination of IC50 and Ki values. […] Assays were performed using a Clario Star microplate reader. […]
property.name: Ki

Below: 2 molecules and their reported Ki.
{"columns": ["molecule", "system.name", "measured"],
 "data": [
  ["CCOC(=O)C(CO)CP(=O)(O)C(Cc1ccccc1)NC(=O)OCc1ccccc1 (stereo not drawn)", "aureolysin (ALN) (Staphylococcus aureus)", "≥ 100 µM"],
  ["NC(=O)C(Cc1c[nH]c2ccccc12)NC(=O)C(CCCc1ccccc1)CP(=O)(O)C(Cc1ccccc1)NC(=O)OCc1ccccc1 (stereo not drawn)", "aureolysin (ALN) (Staphylococcus aureus)", "80 µM"]
]}

// next entry
**Q:** Query: Ki; subject: CC(NC(=O)OCc1ccccc1)P(=O)(O)CC(Cc1ccccc1)C(=O)O (stereo not drawn)
**A:** ≥ 100 µM

* * *

# system.name: pseudolysin (PLN, LasB) (Pseudomonas aeruginosa)
# Construct: purchased Calbiochem (San Diego, CA, USA)
# assay.protocol: Enzyme inhibition kinetics, fluorogenic substrate ES005
# Type: biochemical
# condition.details: read-out: Ki ± s.d.; PLN; substrate ES005 4.0 µM; 0.1 M Hepes pH 7.5, 37°C, 1.0% DMSO; Ki from IC50 (Eqn. 3)
pKi: −log10 of the molar value.
property.name: pKi

**Q:** # lookup: pKi of CC(=O)NC(CC(C)C)C(=O)CC(C)P(=O)(O)CC(Cc1ccccc1)C(=O)O (stereo not shown)
**A:** ≤ 4.00

* * *

# system.name: pseudolysin (PLN, LasB) (Pseudomonas aeruginosa)
# Construct: purchased Calbiochem (San Diego, CA, USA)
# assay.protocol: Enzyme inhibition kinetics, fluorogenic substrate ES005
# Type: biochemical
# condition.details: Pseudolysin (PLN); inhibitor 100 μM; average over 0, 15, 30 min preincubation
# Method: Determination of reaction velocities. The substrate ES001 was used for APMA activated MMP-9 (MMP-9(A)), Mag-Trypsin activated MMP-9 (MMP-9(MT)) and MMP-14, while the substrate ES005 was used for ALN, PLN and TLN. […] The phosphinic compounds were dissolved in 100% DMSO to a final concentration of 10 mM. […] Reactions were monitored for 30 minutes at 37°C. Determination of IC50 and Ki values. […] Assays were performed using a Clario Star microplate reader. […]
property.name: vi/v0 Av (bar diagram figure 7)

Below, each entry is followed by its recorded vi/v0 Av (bar diagram figure 7) result.
{"columns": ["molecule", "vi/v0 Av (bar diagram figure 7)"],
 "data": [
  ["CCOC(=O)C(CO)CP(=O)(O)C(Cc1ccccc1)NC(=O)OCc1ccccc1 (stereo not shown)", 0.86],
  ["CC(NC(=O)OCc1ccccc1)P(=O)(O)CC(Cc1ccccc1)C(=O)O (stereo not shown)", 0.7111],
  ["NC(=O)C(Cc1c[nH]c2ccccc12)NC(=O)C(CCCc1ccccc1)CP(=O)(O)C(Cc1ccccc1)NC(=O)OCc1ccccc1 (stereo not shown)", 0.3295]
]}

Let us examine a further case.
**Q:** What does the data say about its vi/v0 Av (bar diagram figure 7)? Entry: NC(=O)C(CCC(=O)O)NC(=O)C(CCC(=O)O)NC(=O)C(Cc1cc(-c2ccc(-c3cccc(Cl)c3)cc2)no1)CP(=O)(O)c1ccc(Br)cc1 (stereo not shown)
**A:** 0.993

* * *

The following compounds are listed with their measured remaining activity at 100 µM values.
# system.name: aureolysin (ALN) (Staphylococcus aureus)
# Construct: purchased BioCentrum Ltd (Kraków, Poland)
# assay.protocol: Enzyme inhibition kinetics, fluorogenic substrate ES005
# Assay type: biochemical
# condition.details: 0.25 h, read-out: vi/v0 (single replicate), Aureolysin; 100 µM inhibitor; 15 min pre incubation

{"columns": ["compound", "system.name", "property.name", "measured"],
 "data": [
  ["NC(=O)C(Cc1c[nH]c2ccccc12)NC(=O)C(CCCc1ccccc1)CP(=O)(O)C(Cc1ccccc1)NC(=O)OCc1ccccc1 (stereo not shown)", "aureolysin (ALN) (Staphylococcus aureus)", "remaining activity at 100 µM", "45.5%"],
  ["CCOC(=O)C(CO)CP(=O)(O)C(Cc1ccccc1)NC(=O)OCc1ccccc1 (stereo not shown)", "aureolysin (ALN) (Staphylococcus aureus)", "remaining activity at 100 µM", "84.1%"],
  ["NC(=O)C(CCC(=O)O)NC(=O)C(CCC(=O)O)NC(=O)C(Cc1cc(-c2ccc(-c3cccc(Cl)c3)cc2)no1)CP(=O)(O)c1ccc(Br)cc1 (stereo not shown)", "aureolysin (ALN) (Staphylococcus aureus)", "remaining activity at 100 µM", "81.9%"]
]}

Let us move to another entry and its remaining activity at 100 µM.
**Q:** Hello, I am looking for reported remaining activity at 100 µM with aureolysin (ALN) (Staphylococcus aureus) for CC(NC(=O)OCc1ccccc1)P(=O)(O)CC(Cc1ccccc1)C(=O)O (stereo not shown) . Could you help?
**A:** 91.1%

* * *

# system.name: aureolysin (ALN) (Staphylococcus aureus)
# Construct: purchased BioCentrum Ltd (Kraków, Poland)
# assay.protocol: Enzyme inhibition kinetics, fluorogenic substrate ES005
# Type: biochemical
# condition.details: read-out: Ki ± s.d.; ALN; substrate ES005 4.0 µM; 0.1 M Hepes pH 7.5, 37°C, 1.0% DMSO; Ki from IC50 (Eqn. 3)
pKi: −log10 of the molar value.
property.name: pKi

**Q:** Requested read-out: pKi. Entry: CC(=O)NC(CC(C)C)C(=O)CC(C)P(=O)(O)CC(Cc1ccccc1)C(=O)O (stereo not shown) [H-3]
**A:** ≤ 4.00

* * *

# system.name: aureolysin (ALN) (Staphylococcus aureus)
# Construct: purchased BioCentrum Ltd (Kraków, Poland)
# assay.protocol: Enzyme inhibition kinetics, fluorogenic substrate ES005
# Type: biochemical
# condition.details: read-out: vi/v0 avg, Aureolysin; 100 µM inhibitor; no preincubation
property.name: remaining activity at 100 µM (%)
Lab book: enter the figure in %, no units written.

{"columns": ["compound", "uom", "remaining activity at 100 µM"],
 "data": [
  ["NC(=O)C(CCC(=O)O)NC(=O)C(CCC(=O)O)NC(=O)C(Cc1cc(-c2ccc(-c3cccc(Cl)c3)cc2)no1)CP(=O)(O)c1ccc(Br)cc1 (stereo not shown)", "%", 87.7],
  ["NC(=O)C(Cc1c[nH]c2ccccc12)NC(=O)C(CCCc1ccccc1)CP(=O)(O)C(Cc1ccccc1)NC(=O)OCc1ccccc1 (stereo not shown)", "%", 41.1],
  ["CC(NC(=O)OCc1ccccc1)P(=O)(O)CC(Cc1ccccc1)C(=O)O (stereo not shown)", "%", 90.3]
]}

Now look at this one.
**Q:** Entry CCOC(=O)C(CO)CP(=O)(O)C(Cc1ccccc1)NC(=O)OCc1ccccc1 (stereo not shown) has what remaining activity at 100 µM?
**A:** 91.6

* * *

# system.name: pseudolysin (PLN, LasB) (Pseudomonas aeruginosa, UniProt P14756)
# Construct: purchased Calbiochem (San Diego, CA, USA)
# Sequence (P14756 198-498): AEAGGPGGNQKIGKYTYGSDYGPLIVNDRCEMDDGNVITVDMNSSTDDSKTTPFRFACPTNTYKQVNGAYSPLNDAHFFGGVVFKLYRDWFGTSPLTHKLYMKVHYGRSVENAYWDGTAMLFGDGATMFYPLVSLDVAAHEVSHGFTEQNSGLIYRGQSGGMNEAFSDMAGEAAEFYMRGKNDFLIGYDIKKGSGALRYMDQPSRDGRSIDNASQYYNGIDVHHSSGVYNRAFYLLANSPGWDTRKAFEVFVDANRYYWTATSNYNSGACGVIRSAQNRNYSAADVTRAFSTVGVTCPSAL
# assay.protocol: Enzyme inhibition kinetics, fluorogenic substrate ES005
# Type: biochemical
# condition.details: PLN; 100 μM compound; in words

{"columns": ["compound", "inhibitory effect on enzymatic activity"],
 "data": [
  ["CCOC(=O)C(CO)CP(=O)(O)C(Cc1ccccc1)NC(=O)OCc1ccccc1 (stereo not shown)", "weak or no inhibition"],
  ["CC(NC(=O)OCc1ccccc1)P(=O)(O)CC(Cc1ccccc1)C(=O)O (stereo not shown)", "weak or no inhibition"],
  ["CC(=O)NC(CC(C)C)C(=O)CC(C)P(=O)(O)CC(Cc1ccccc1)C(=O)O (stereo not shown)", "weak or no inhibition"]
]}
